Listed sequences paired with reported apparent KD of MS2 coat protein
# Test system: MS2 coat protein
# assay_procedure: apparent KD of MS2 coat protein; designed switch direction (-1 OFF switch, 1 ON switch): 1; higher = weaker reporter binding
# condition_set: Eterna round: R95; input ligand: none
Answer with the value and then the unit.

# chain_sequence, system, apparent KD of MS2 coat protein
measured = [
    ("UCUUGGUUUUUGCUCGUUUUUUGUGUUGAACAUGAGGAUCACCCAUGUAUUGUACGGUCCGGUUUAGUAAUGGUCCG [JMF 11] (puzzle: Sensor for hsa-mir-208a)", "MS2 coat protein", "25 nM"),
]

Now for another entry.
[ask] So what does the record say about apparent KD of MS2 coat protein for AGUCCAGCAUGAGCUGGACAAAAGCAUGUACAUGAGGAUCACCCAUGUCAUGUACAAGCUUUUUGCUCGUCUUAAAA [Mat - hsa-mir-208a - Mod of JL - D1] (puzzle: Sensor for hsa-mir-208a) ?
[reply] 627 nM

====

# Test system: MS2 coat protein
# assay_procedure: apparent KD of MS2 coat protein; designed switch direction (-1 OFF switch, 1 ON switch): -1; higher = weaker reporter binding
# condition_set: input ligand: FMN 200 uM
Listed sequences paired with reported apparent KD of MS2 coat protein
Field: numeric (nM). Do not append units.

# chain_sequence, system, apparent KD of MS2 coat protein (nM)
rows = [
    ("AAGAAGAAGUAAGGAUAUGAAGAUCUGGUGGUGACAUGAGGAUCACCCAUGUGAAAACAAUAAGAUCAGAAGGUAUAAGAAGAA [AK ExNG2-3.1] (Eterna round: R96, puzzle: Exclusion NG 2)", "MS2 coat protein", 81),
    ("AUAAAUCAUGUAGGAUAUGCGUGGCAAAGCUAUGCAGAAGGACAUGAGGAUCACCCAUGUGCUUCCGUCUGAGAACAGACGGUA [Mat - Exclusion NG 1 - Mod of JL - D24] (Eterna round: R96, puzzle: Exclusion NG 1)", "MS2 coat protein", 130),
    ("GUACUGAAGCUUUGCUUUAGUCGUACAUGAGGAUCACCCAUGUAGGAUAUGGUAGGCAUAGCUUACUAGAAGGAUAGAGUGAUC [Mat - Exclusion NG 3 - Mod of JL - D64] (Eterna round: R96, puzzle: Exclusion NG 3)", "MS2 coat protein", 112),
]

Now for another entry.
[ask] Checklist item: apparent KD of MS2 coat protein tested on MS2 coat protein, entry AUAUAGAUAGUCAGGAUAUACUAGUGAUAACAGUAGUAGAAGGGACAUGAGGAUCACCCAUGUAGAUACUGCAC [Brourd's EX4 #2] (Eterna round: R97, puzzle: Brourd's mod of Exclusion 4) , value?
[reply] 22.2

====

# System: MS2 coat protein
# assay_procedure: apparent KD of MS2 coat protein; higher = weaker reporter binding
# condition_set: Eterna round: R107; input ligand: theophylline 2 mM
quantity_name: apparent KD of MS2 coat protein (nM)
Field: numeric (nM). Do not append units.

# chain_sequence, system, unit_descriptor, number
rows = [
    ("ACCUGUACGAAAAGUGCAGGACAUGAAUAACGAGGACCGGUACGGCCGCCACUCGGGUAAUAACCUGAGGAUCACCCGGGUCAUG [TrypAS 6 #AlternativeMS2 #Zipper #StaticStem]", "MS2 coat protein", "nM", 249),
    ("GGAUAGGACACGGCCGCCACUAGCUAGGAUACUAGCAACAUUUCCUCACCUGAGGAUCACCCUGGUAGGACCGGGUGUCCUAUCG", "MS2 coat protein", "nM", 1390),
    ("GCACCAGGUACGGAUACCAGACAUUGCCGUUAGGGUGAACAUGAGGAUCACCCAUGUUUUGUCCCUUGGCAGCCGUACCUGGUGC [ETB NP+V+V2 #7 Same Structure]", "MS2 coat protein", "nM", 86.5),
    ("UAUCGUCAGACGGCCGCCACUAGAACAUGAGGAUCACCCAUGUACGGCCGCCCGGUAUGGGUGUCUAGGACCGGGUCUGACGAAU [(Trp1)-(Ms2)-(T)'-(M)'-(Trp2)_Design21]", "MS2 coat protein", "nM", 39.8),
]

Now for another entry.
[ask] So what does the record say about apparent KD of MS2 coat protein for UCGUCAGGCGCGGCCGCCACUGCGGUGAUGUGACAUGAGGAUCACCCAUGUUGUCAUGUGGCACAUAGGACCGGGUGCCUGGCGA [Exclusion - Tryptophan B Attempt #5 (HarryS)] ?
[reply] 114

====

# Tested on: K4 kissing-loop RNA reporter;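 also: bound reporter read as fluorescence of individual clusters on recovered sequencing chips by microscopy, with normalized cluster intensities fitted with a binding model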
# assay_procedure: apparent KD of K4 kissing-loop reporter; higher = weaker reporter binding
# condition_set: Eterna round: R107; input ligand: theophylline 20 uM
quantity_name: apparent KD of K4 kissing-loop reporter (nM)
Field: numeric (nM). Do not append units.

Below: 5 sequences and their reported apparent KD of K4 kissing-loop reporter.
# chain_sequence, system, apparent KD of K4 kissing-loop reporter / nM
records = [
    ("AUUAUAAAGUCGGCCGCCACUGAGAGUAGUGAUGUUACUCUUUUCCUUUAGAUAUUAUAUUUUAUCAGGACCGGGACAUCUGAUU [JR_Nu_ExcTryptoB_Sub024]", "K4 kissing-loop RNA reporter", 134),
    ("UUGAGCCGGACUCAAGUCCGGCUCUGCGAGCGAGGACCGGUACGGCCGCCACUCGGUGCAGUGAUGUUGCAUGGCCGCAAGGCCG [#2 Exclusion - Tryptophan A Attempt #13 (HarryS)]", "K4 kissing-loop RNA reporter", 404),
    ("UGGAUAUCGUUUAGUCUGGUGAGCUCAGAUACCAGACUAGCGAUGGUCCCUUGGCAGCUGAUUACGAUUGAGUGAUGUUCAAUCG [Theo A Ex t9c]", "K4 kissing-loop RNA reporter", 160),
    ("AGAAGGAGAACUGCAAGAACUCCUUCAGACUAGGAUAUCAGGAAACUGAGAAGGAGUCAACUUGCAGUGAUGUUGCAAGAAUAAU [[F]''-[K]'-[F]'-[F1]-[F2]-[K1]-[K2]_Design1]", "K4 kissing-loop RNA reporter", 103),
    ("AACGGCCAGUCGGCCGCCACUCGAUGCAGUGAUGUUGCUAACUUUCUAAAAGAGUGAUGUUCAUGGAGGACCGGGACUAGUGUAA [#30 K4 Tryptophan B Exclusion]", "K4 kissing-loop RNA reporter", 255),
]

[ask] So what does the record say about apparent KD of K4 kissing-loop reporter for GCUAUGGUAGGAAGGAGCGCUUAUUUAUUUUUAAGAGUGAUGUUCGUUAGUAGAUAGUUAAAGCAGGUAGGUCGCCUACUAUAGC [Arginine B K4 15] ?
[reply] 161

[ask] Try the sequence UGAUAGGACAGAAGGAGCGAGGAGUGAUGUUCCUCAAAAGGUCUAGCAAAGCUAGACCCUCCUCAGGUAGGUCGCUGUCCUAUCU [ArgBX 1 #Palindromic #SwitchBubble #StaticStem]
[reply] 232

[ask] Try the sequence CCUUCUCUUGAUAGUGAUGUUGUCGAGGACAAGGAUAUCAUCUCAAUGAGAAGGUGUCCUUGAUAACAUGGAGGUCUGAAACAGA [Omei KL FMN A Exc C v10]
[reply] 365

[ask] Try the sequence AAUAUAUAGUGAAGGAGCGCGAUAAGCAGUGAUGUUGCUUUGUUAUGAUUGUCUAUUUUUACGCAGGUAGGUCGCACUAUAUAUA [JR_ExcArginiB_Sub020]
[reply] 109

[ask] Try the sequence ACCUGUAGUGAUGUUACUGGUGGUUAGGAAGGAGCGCCCGCGUGGGCAGGUAGGUCGCCUAAGCUAUGUGGGAAACCGCAUAUUG [#14 K4 Arginine A Same State]
[reply] 75.3

[ask] Try the sequence GUUCGGAUGCGGGAUACCAGCGUACCGAGCAAGCUUCGGGUAGUGAUGUUAUCUGAAUUACGCCCUUGGCAGCCCGCAUCCGGGC [clock_plus]
[reply] 212

====

# System: MS2 coat protein
# assay_procedure: apparent KD of MS2 coat protein; designed switch direction (-1 OFF switch, 1 ON switch): 1; higher = weaker reporter binding
# condition_set: Eterna round: R95; input ligand: microRNA oligo, concentration not stated
quantity_name: apparent KD of MS2 coat protein

# chain_sequence, apparent KD of MS2 coat protein
data = [
    ("AAUUAUUAACAUGAGGAUCACCCAUGUAUUAUUAUUAUUAUUAACAAGCUUUUUCAUGUUAUUAGCUCGUCUUAUAA [Bojan's Design 2] (puzzle: Sensor for hsa-mir-208a version 2)", "0.0317 µM"),
]

[ask] Checklist item: apparent KD of MS2 coat protein tested on MS2 coat protein, entry CAGCGCUGCCGGGAGGAUAUGCGGUGAUGGACAUGAGGAUCACCCAUGUUAGCGGUAGCAUUACGGCAGAAGGCCCUGCAGCUGC [Soteed Omei mod 1] (puzzle: Same State 2) , value?
[reply] 0.0123 µM

[ask] Try the sequence CAUUCUUUUCCGGAGGAUAUGCUACCCUUUACAUGAGGAUCACCCAUGUUACCCUCUUCUUGUCAGUAGAAGGCCGUUUCUUAAC [Regan] (puzzle: Same State 2)
[reply] 0.0273 µM

[ask] Try the sequence CGGCGCUGUCGAGAGGAUAUGCGGUGAUGGACAUGAGGAUCACCCAUGUUAGCGAUAGCAUUACGGUAGAAGGCUCUAUAGUUGC [Soteed Omei mod 9] (puzzle: Same State 2)
[reply] 0.248 µM

[ask] Try the sequence AGUCCAGCCUGAGCUGGACAAAAGCGUGUACAUGAGGAUCACCCAUGUCAUGUACAAGCUUUUUGCUCGUCUUAAUA [Zipper 49 - 6] (puzzle: Sensor for hsa-mir-208a)
[reply] 0.0212 µM
